# System: CD11b
# assayProtocol: Human whole blood CD11b up-regulation assay
# Assay type: cell-based
# conditionLabel: Homo sapiens, 2 nM human C5a, CD15+ granulocytes, read-out: hCD11b IC50
readoutName: pIC50
Scale: pIC50 equals -log10([C]), with [C] in mol/L.

- compound: "CO[C@H]1CCN(c2nc(-c3c(C)ccc4[nH]nc(C)c34)nc3c2CN(c2cc(C(F)(F)F)nn2C)CC3)CC1(C)C [Example 23-K]"
  pIC50: 7.96
- compound: "CO[C@@H]1CCN(c2nc(-c3c(C)cccc3C)nc3c2CN(c2cc(C4CC4)nn2C)CC3)[C@H](C)C1 [Example 23-D]"
  pIC50: 7.74
- compound: "CO[C@H]1CCN(c2nc(-c3ccc(F)c4[nH]cc(C)c34)nc3c2CN(c2cc(C(C)C)ccc2C)CC3)CC1(C)C [Example 21-AF]"
  pIC50: 7.55

Now consider a different compound.
Respond only with pIC50 recorded for CO[C@@H]1CCN(c2nc(-c3c(C)ccc4[nH]nc(C)c34)nc3c2CN(c2c(Cl)c(C(F)(F)F)nn2C)CC3)CC1(C)C [Example 55-N]
7.92

====

# Tested on: CD11b
# assayProtocol: Human whole blood CD11b up-regulation assay
# Assay type: cell-based
# conditionLabel: Homo sapiens, 2 nM human C5a, CD15+ granulocytes, read-out: hCD11b IC50
readoutName: pIC50
Scale: pIC50 equals -log10([C]), with [C] in mol/L.

Worked examples follow.
- compound: "CO[C@@H]1CCN(c2nc(-c3c(C)cc(C)cc3C)nc3c2CN(c2cc(C(C)C)ccc2C)CC3)CC1(C)C [Example 21-AE]"
  pIC50: 7.03
- compound: "COC1CCN(c2nc(-c3c(C)cccc3C)nc3c2CN([C@@H](C)c2ccccc2)CC3)CC1(C)C (mixture of isomers) [Example 33-C]"
  pIC50: 6.62
- compound: "CCn1nc(C2CC2)c(Cl)c1N1CCc2nc(-c3c(C)ccc4[nH]nc(C)c34)nc(N3CCC3C)c2C1 (single isomer, unassigned) [Example 70-H]"
  pIC50: 7.39
- compound: "Cc1ccc(C(C)C)cc1N1CCc2nc(-c3c(C)ccc4[nH]nc(C)c34)nc(N3CC[C@@H](N(C)C)C3)c2C1 [Example 65-B]"
  pIC50: 7.80
- compound: "Cc1ccc2[nH]nc(C)c2c1-c1nc2c(c(N3CCOC[C@H]3C)n1)CN(c1c(Cl)c(C3CC3)nn1C)CC2 [Example 70-J]"
  pIC50: 7.41
- compound: "Cc1ccc(C(C)C)cc1N1CCc2nc(-c3c(C)ccc4[nH]nc(C)c34)nc(N3CC(N(C)C)C3)c2C1 [Example 65-A]"
  pIC50: 7.52

Respond only with pIC50 recorded for CO[C@H]1CCN(c2nc(-c3c(C)ccc4[nH]nc(Cl)c34)nc3c2CN(c2cc(C(C)C)ccc2C)CC3)CC1(C)C [Example 32-B]
7.62

Respond only with pIC50 recorded for CO[C@@H]1CCN(c2nc(-c3c(C(F)(F)F)cnc4[nH]ccc34)nc3c2CN(c2cc(C(C)C)ccc2C)CC3)[C@H](C)C1 [Example 22-C]
7.77

====

This section presents compounds with their documented pIC50 values.
# testedTarget: human C5aR (Homo sapiens (Human), UniProt P21730)
# Sequence (P21730 whole entry): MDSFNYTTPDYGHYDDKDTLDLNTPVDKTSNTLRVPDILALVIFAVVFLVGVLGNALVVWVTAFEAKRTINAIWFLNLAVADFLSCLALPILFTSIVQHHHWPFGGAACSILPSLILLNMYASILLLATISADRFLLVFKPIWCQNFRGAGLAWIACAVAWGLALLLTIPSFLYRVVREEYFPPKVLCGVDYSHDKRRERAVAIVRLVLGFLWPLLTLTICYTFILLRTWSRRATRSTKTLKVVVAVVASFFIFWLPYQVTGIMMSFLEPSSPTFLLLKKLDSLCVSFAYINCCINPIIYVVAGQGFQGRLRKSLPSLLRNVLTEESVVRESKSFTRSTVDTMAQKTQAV
# assayProtocol: FLIPR assay: inhibition of C5a-mediated calcium mobilization
# conditionLabel: stable cell line over expressing human C5aR & Gα15, human C5a at EC50 (0.1-0.25 nM)
Scale: pIC50 equals -log10([C]), with [C] in mol/L.

Worked examples follow.
- structureString: "CO[C@@H]1CCN(c2nc(-c3c(C)cccc3C)nc3c2CN(c2cc(C(F)(F)F)ccc2C)CC3)CC1(C)C"
  testedTarget: "human C5aR (Homo sapiens (Human), UniProt P21730)"
  pIC50: 8.40
- structureString: "CO[C@@H]1CCN(c2nc(-c3c(C)ccc4[nH]nc(C)c34)nc3c2CN(c2cc(C4CC4)nn2C)CC3)[C@H](C)C1"
  testedTarget: "human C5aR (Homo sapiens (Human), UniProt P21730)"
  pIC50: 9.00

Respond only with pIC50 recorded for "CCO[C@@H]1CCN(c2nc(-c3c(C)ccc4[nH]nc(C)c34)nc3c2CN(c2c(F)c(C4CC4)nn2C)CC3)CC1(C)C"
8.70

====

# System: CD11b
# assayProtocol: Human whole blood CD11b up-regulation assay
# Type: cell-based
# conditionLabel: Homo sapiens, 2 nM human C5a, CD15+ granulocytes, read-out: hCD11b IC50
This section presents molecules with their documented pIC50 values.
Scale: pIC50 equals -log10([C]), with [C] in mol/L.

Worked examples follow.
- molecule: "Cc1ccc2[nH]nc(C)c2c1-c1nc2c(c(N3CC(N(C)C)C3)n1)CN(c1c(Cl)c(C3CC3)nn1C)CC2"
  testedTarget: "CD11b"
  pIC50: 6.95
- molecule: "Cc1c[nH]c2cccc(-c3nc4c(c(N5CCN(CC(N)=O)[C@H](C)C5)n3)CN(c3ccccc3C(F)(F)F)CC4)c12"
  testedTarget: "CD11b"
  pIC50: 5.82
- molecule: "CCO[C@@H]1CCN(c2nc(-c3c(C)ccc4[nH]nc(C)c34)nc3c2CN(c2cc(C(C)C)ccc2C)CC3)[C@H](C)C1"
  testedTarget: "CD11b"
  pIC50: 7.72
- molecule: "CO[C@@H]1CCN(c2nc(-c3c(C)ccc4[nH]nc(C)c34)nc3c2CN(c2cc(C(F)(F)F)ccc2C)CC3)CC1(C)C"
  testedTarget: "CD11b"
  pIC50: 7.82
- molecule: "Cc1cc(N2CCc3nc(-c4c(C)cccc4C)nc(N4CCCC(C)(C)C4)c3C2)n(C)n1"
  testedTarget: "CD11b"
  pIC50: 5.65
- molecule: "CO[C@@H]1CCN(c2nc(-c3c(C)cccc3C)nc3c2CN(c2cc(C(C)C)ccc2C)CC3)[C@H](C)C1"
  testedTarget: "CD11b"
  pIC50: 8.15
- molecule: "Cc1ccc(C(C)C)cc1N1CCc2nc(-c3cccc4[nH]cc(C)c34)nc(N3CCN(CC(N)=O)[C@H](C)C3)c2C1"
  testedTarget: "CD11b"
  pIC50: 6.37
- molecule: "CO[C@@H]1CCN(c2nc(-c3c(C)cccc3C)nc3c2CN(c2cc(C(F)(F)F)ccc2C)CC3)CC1(C)C"
  testedTarget: "CD11b"
  pIC50: 7.96
- molecule: "CO[C@H]1CN(c2nc(-c3c(C)ccc4[nH]nc(C)c34)nc3c2CN(c2cc(C(C)C)ccc2C)CC3)C[C@@H]1N(C)C (single isomer, unassigned)"
  testedTarget: "CD11b"
  pIC50: 7.25
- molecule: "CO[C@H]1CCN(c2nc(-c3cccc4[nH]cc(C)c34)nc3c2CN(c2cc(C(C)C)ccc2C)CC3)[C@H](C)C1"
  testedTarget: "CD11b"
  pIC50: 7.15

State measured pIC50 of the molecule "CO[C@@H]1CCN(c2nc(-c3c(C)ccc4[nH]nc(C)c34)nc3c2CN(c2cc(C(C)C)ccc2C)CC3)C[C@H]1C" with CD11b.
8.22

State measured pIC50 of the molecule "Cc1ccc(C(C)C)cc1N1CCc2nc(-c3c(C)ccc4[nH]nc(C)c34)nc(OCC(F)F)c2C1" with CD11b.
7.54

State measured pIC50 of the molecule "CC(=O)N1CCN(c2nc(-c3cccc4[nH]cc(C)c34)nc3c2CN(c2cc(C4(C)COC4)ccc2C)CC3)[C@H](C)C1" with CD11b.
6.04

====

# Tested on: CD11b
# assayProtocol: Human whole blood CD11b up-regulation assay
# Assay type: cell-based
# conditionLabel: Homo sapiens, 2 nM human C5a, CD15+ granulocytes, read-out: hCD11b IC50
readoutName: pIC50
Scale: pIC50 equals -log10([C]), with [C] in mol/L.

Worked examples follow.
- structureString: "COc1ccc(C)c(N2CCc3nc(-c4c(C)cccc4C)nc(N4CC[C@@H](OC)C[C@H]4C)c3C2)c1"
  pIC50: 8.10
- structureString: "CO[C@H]1CCN(c2nc(-c3c(C)cccc3C)nc3c2CN(c2cc(C(F)(F)F)ccc2C)CC3)CC1(C)C"
  pIC50: 7.59

Now consider a different compound.
Respond only with pIC50 recorded for "CO[C@@H]1CCN(c2nc(-c3c(C)cccc3Cl)nc3c2CN(c2cc(C(C)C)ccc2C)CC3)C[C@H]1C"
7.77

====

# testedTarget: human C5aR (Homo sapiens (Human))
# assayProtocol: FLIPR assay: inhibition of C5a-mediated calcium mobilization
# conditionLabel: stable cell line over expressing human C5aR & Gα15, human C5a at EC50 (0.1-0.25 nM)
This section presents compounds with their documented IC50 values.
Give a bare numeral; the unit nM is implied.

Respond only with IC50 recorded for [2H]C1([2H])c2c(C)cc(-c3c(C)cnc4[nH]ccc34)nc2CCN1c1cc(C(C)C)ccc1C [Example 43-D]
802

Respond only with IC50 recorded for CO[C@@H]1CCN(c2nc(-c3cc(C)ccc3C)nc3c2CN(c2cc(C(C)C)ccc2C)CC3)[C@H](C)C1 [Example 21-E]
23

Respond only with IC50 recorded for CO[C@@H]1CCN(c2nc(-c3c(C)ccnc3C)nc3c2CN(c2cc(C(C)C)ccc2C)CC3)[C@H](C)C1 [Example 21-S]
30
